- tested_system: cyclin A (human), P20248
- Sequence (P20248 whole entry): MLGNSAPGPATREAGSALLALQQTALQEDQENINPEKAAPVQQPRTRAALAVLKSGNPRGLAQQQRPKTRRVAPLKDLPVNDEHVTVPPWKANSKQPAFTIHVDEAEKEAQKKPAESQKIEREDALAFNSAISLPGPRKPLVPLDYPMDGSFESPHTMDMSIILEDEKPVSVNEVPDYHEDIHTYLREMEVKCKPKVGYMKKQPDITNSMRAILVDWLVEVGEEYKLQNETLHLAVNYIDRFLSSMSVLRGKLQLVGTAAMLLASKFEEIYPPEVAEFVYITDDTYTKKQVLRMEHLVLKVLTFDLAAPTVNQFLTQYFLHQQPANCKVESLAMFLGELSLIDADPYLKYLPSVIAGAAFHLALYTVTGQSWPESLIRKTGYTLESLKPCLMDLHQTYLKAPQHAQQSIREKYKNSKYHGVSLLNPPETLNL
- method_notes: competition
- run_parameters: modification not given
test_readout: IC50 (µM)
The figure you give is taken to be in µM; do not add the unit.

**Query** Form field: reported IC50 of RRLNF [Ac-RRLNF-NH2]
**Result** 8.15
